molecular target: recombinant eIF4E (Homo sapiens (Human), UniProt P06730); assay: Fluorescence polarization competition assay for eIF4E binding potency; details: fluorescence polarization competition, 75 nM recombinant eIF4E, 20 nM EDA-m7GDP-ATTO-550; IC50 class; read-out: elF4E FP
Sequence (P06730 whole entry): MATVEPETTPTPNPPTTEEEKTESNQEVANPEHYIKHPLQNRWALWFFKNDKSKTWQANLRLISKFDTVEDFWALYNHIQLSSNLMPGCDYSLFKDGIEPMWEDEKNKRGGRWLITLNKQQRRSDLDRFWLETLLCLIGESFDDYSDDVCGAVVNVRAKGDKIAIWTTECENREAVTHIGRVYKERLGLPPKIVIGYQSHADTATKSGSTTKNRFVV
pIC50: −log10 of the molar value.
observationType: pIC50

structuresmiles=Cc1cc(-c2cc(Cl)ccc2OCCn2c(C)nc3cc4c(c(C#N)c3c2=O)CCNC4)c2scc(C(=O)O)c2n1 value="> 7.30"
structuresmiles=CCc1cc(-c2cc(Cl)ccc2OCCn2c(C)nc3cnc([C@@H]4[C@@H]5CN(C)C[C@@H]54)c(C#N)c3c2=O)c2scc(C(=O)O)c2n1 value="> 7.30"

We now examine a further compound.
Could you share which pIC50 value was measured for Cc1ccc(F)c(-c2ncc3cc(C)n(CCOc4ccc(Cl)cc4-c4cc(C)nc5c(C(=O)O)csc45)c(=O)c3c2C#N)n1 ? > 7.30
